This section presents compounds with their documented composite z-score values.
# Experiment notes: binders from COS7 lysate, DM2A8 probe, primary screen, torsin A project, cell lysate, small-molecule microarray, fluorescence 635/667 (AID 1065)
# Stated conditions: higher = more signal, COS7 lysate expressing mutant human TOR1A
Recorded endpoint: composite z-score

- C=C(CCCC)/C(=C/C[C@@H](OC(=O)c1ccncc1)c1cccc(OCCO)c1)c1cc(C(=O)OC)ccc1OC: 0.522
- C[C@H]1COC(=O)[C@@H]2CCCN2C(=O)[C@@H](C)COC(=O)[C@@H]2CCCN2C1=O: 0.491
- O=C1O[C@H](c2ccccc2)[C@H](c2ccccc2)N2[C@H]1[C@@H](C(=O)Nc1nc3ccccc3s1)[C@]1(C(=O)Nc3ccc(C#CC4=CCCCC4)cc31)[C@H]2c1ccccc1OCCO: 0.255
- CC(C)CN1C(=O)[C@@]2(Cc3ccccc31)c1ccccc1C(=O)N(C1CCCCC1)[C@H]2c1ccc(CO)cc1: -0.21
- C=C(COC)/C(=C/C[C@@H](OC(C)=O)c1cccc(OCCO)c1)c1cc(C(=O)OC)ccc1OC: 0.361
- O=C1OCC=C[C@H]2OC34C=CCN(Cc5ccccc5)C(=O)[C@H]3N(CCCCCO)C(=O)[C@@H]4[C@@H]12 (stereo partly drawn): -0.0288
- C[N+](C)(C)CCCCNC(=O)[C@H]1C[C@H]2C(=O)NCC(=O)N2[C@H]1c1cccc(OCCO)c1: 2.35
- Cc1ccc(S(=O)(=O)N2[C@@H](c3ccccc3)C(C(=O)O)=CC[C@H]2c2ccccc2)cc1: -0.0906
- CO[C@H]1O[C@H](CO)[C@@H](OC(=O)CCc2ccccc2)[C@@H]2OC(=O)[C@H](Cc3cccc(Br)c3)C/C=C/C[C@@H](Cc3cccc(Br)c3)C(=O)O[C@@H]12: 0.361
- CCCCCCc1nc(C2CC2)c(C)c2c1[Si](C(C)C)(C(C)C)OC2: 0.159
- [N-]=[N+]=NCc1ccccc1[C@H]1OC(c2ccc(OCCCO)cc2)=N[C@@]1(Cc1ccccc1N=[N+]=[N-])C(=O)NCc1ccccc1: 0.155
- C=CC(=O)O[C@@H](Cc1ccccc1)[C@H]1C2C=CCCC=C2CN1Cc1cccc(Cl)c1 (stereo partly drawn): -0.32
- CO[C@@H]1COC(=O)CC=C[C@@H](C)[C@H](OC)COC(=O)CC=C[C@H]1C: 1.22
- Cc1ccc(N2C(=O)c3ccccc3[C@@H](C(=O)NCc3ccccc3)[C@@H]2c2ccc(CO)cc2)nc1: 0.205
- C=C(/C(=C/C[C@@H](OC(=O)c1ccncc1)c1ccc(CO)o1)c1cnc2ccccc2c1)C(C)C: 0.522
- O=[N+]([O-])c1ccc(C[n+]2ccc3ccc(O)cc3c2)o1: 0.449
- O=C(CS)NCCCCCCNC(=O)[C@@H]1C[C@@H]2C(=O)N[C@@H](Cc3ccccc3)C(=O)N2[C@@H]1c1ccc(O)cc1: 1.09
- C=CCC(OC(C)=O)[C@@H]1[C@@H](N(Cc2ccc(-c3ccccc3)cc2)C(=O)c2ccc(-c3ccccc3)cc2)c2cc(OCCCO)ccc2N1C(=O)Cc1ccc(OC)cc1 (stereo partly drawn): 0.354
- C=CCN(C(=O)C1N(c2ccc(CCO)cc2)C(=O)C2C(C(=O)O)C3C=CC21O3)C(C)(C)C (stereo not drawn): -1.15
- CCOC(=O)C[C@H]1[C@H](OC(=O)c2ccccc2-c2ccccc2)[C@@H](NC(=O)C2CCCCC2)c2cc(OCCCO)ccc2N1C(=O)c1ccccc1: 0.0236
- CC(C)[Si](OCC[C@H]1O[C@]2(C(=O)N(Cc3ccccc3)c3ccccc32)[C@@H](C)[C@@H]1[Si](C)(C)O)(C(C)C)C(C)C: -0.149
- COCCOC(=O)N1C(=O)[C@@]2(c3cc(C#CCC(C(=O)OC)C(=O)OC)ccc31)[C@H](c1ccccc1OCCO)N1[C@H](c3ccccc3)[C@H](c3ccccc3)OC(=O)[C@H]1[C@@H]2C(=O)N1CCCCCCC1: 0.618
- CC(C)N1CC=CC23O[C@@H]4/C=C\CCCOC(=O)C4[C@H]2C(=O)N(CCCCCO)[C@@H]3C1=O (stereo partly drawn): 2.29
- COCCOC(=O)N1C(=O)[C@@]2(c3cc(C#CCCO)ccc31)[C@H](C(=O)N1CCCCCCC1)[C@H]1C(=O)O[C@H](c3ccccc3)[C@H](c3ccccc3)N1[C@@H]2c1ccc(O)cc1: 1.22
- CO[C@H]1COC(=O)[C@H](C)COC(=O)[C@H](Cc2ccccc2)NC(=O)CC=C[C@H]1C: 0.355
- NC(=O)[C@H]1[C@@H]2C(=O)O[C@@H](c3ccccc3)[C@@H](c3ccccc3)N2[C@@H](c2ccc(O)cc2)[C@]12C(=O)Nc1ccc(C#CCCO)cc12: -0.831
- C[C@@H]1NC(=O)[C@H](Cc2ccccc2)NC(=O)[C@@]23C(=O)N[C@@H](Cc4ccccc4)C2[C@H](C)[C@@]2(C)O[C@H]2C3/C=C/C/C=C\CNC1=O (stereo partly drawn): -0.0483
- C=CCC(OC(C)=O)[C@@H]1[C@@H](N(Cc2cccc3ccccc23)C(=O)Cc2ccc(F)cc2)c2cc(OCCCO)ccc2N1C(=O)Cc1ccc2ccccc2c1 (stereo partly drawn): 0.154

* * *

# Experiment notes: binders from COS7 lysate, DM2A8 probe, primary screen, torsin A project, cell lysate, small-molecule microarray, fluorescence 635/667 (AID 1065)
# Stated conditions: higher = more signal, COS7 lysate expressing mutant human TOR1A
Here, each record is paired with measured composite z-score data.
Recorded endpoint: composite z-score

* COCCOC(=O)N1C(=O)[C@@]2(c3cc(C#CCNC(N)=O)ccc31)[C@H](c1ccc(OCCO)cc1)N1[C@H](c3ccccc3)[C@H](c3ccccc3)OC(=O)[C@H]1[C@@H]2C(=O)N1CCCCCCC1 | 0.0698
* COc1cccc([C@@H]2[C@@H](C)CC[C@H]3C(=O)N(C)[C@@H](C(C)C)C(=O)N23)c1 | 0.353
* CCCC[C@@H]1C[C@H]1[C@@H](NC(=O)c1ccccc1)c1ccccc1C(F)(F)F | 0.281
* CC(=O)Nc1ccc([C@H]2[C@H](C)CC[C@H]3C(=O)N4[C@@H](CC[C@@H](C)[C@@H]4c4ccc(NC(C)=O)cc4)C(=O)N32)cc1 | 0.482
* CCOC(=O)C[C@H]1[C@H](OC(=O)c2cc3ccccc3oc2=O)[C@@H](NC(=O)c2ccc3ccccc3c2)c2cc(OCCCO)ccc2N1C(=O)c1ccc2ccccc2n1 | 0.128
* CO[C@H]1COC(=O)CC=C[C@H](C)[C@@H](OC)COC(=O)[C@H](Cc2ccccc2)NC(=O)CC=C[C@@H]1C | 1.36
* CO[C@H]1COC(=O)[C@@H](C)NC(=O)CC=C[C@@H](C)[C@H](OC)COC(=O)CC=C[C@@H]1C | 1.95
* O=C/C=C/c1ccccc1Cl | -0.0907

* * *

# Test system: Human papillomavirus type 1a E7 protein (residues 1-88)
# Experiment notes: HPV1a E7 small-molecule binders, primary screen, biochemical, small-molecule microarray, residues 1-88, 635 nm (AID 1129)
# Stated conditions: small-molecule microarray binding, fluorescence 635 nm; higher = more signal
Please enter condition met where composite z-score is greater than or equal to 1, and condition not met where it is lower.

- COc1ccc(C(=O)Nc2ccc(CN3C(=O)[C@]4(O[C@H](CCn5cc(CCO)nn5)[C@@H]([Si](C)(C)c5ccc(OC)cc5)[C@@H]4C)c4ccccc43)cc2)cc1: condition met
- CO[C@@H]1COC(=O)[C@H](COCc2ccccc2)NC(=O)CC=C[C@@H](C)[C@H](OC)COC(=O)[C@H](COCc2ccccc2)NC(=O)CC=C[C@H]1C: condition not met
- COc1cccc([C@H]2N[C@H](C(=O)O)CC[C@@H]2C)c1: condition not met
- C=CC[C@@]1(C(=O)N2CCOCC2)N=C(c2ccc(OCCCO)cc2)O[C@@H]1c1ccccc1: condition met
- O=C(NCc1ccccc1)[C@@]1(CCS(=O)(=O)c2ccccc2)COC(c2ccc(OCCCO)cc2)=N1: condition met
- CCOC(=O)C1=CCC(c2cccc3ccccc23)N(S(=O)(=O)c2ccc(C)cc2)C1 (stereo not drawn): condition met
- Cc1ccc(S[C@]2(C(=O)NC(C)C)CC(=O)N(C3Cc4ccccc4C3)[C@@H]2c2ccc(CO)cc2)cc1: condition not met
- CCCC=C(CCC)[C@@H](NS(=O)(=O)c1ccc(-c2ccccc2)cc1)c1ccc(C(=O)OC)cc1: condition not met
- CN1C2C=C(c3ccc(CO)cc3)C(C3C(=O)N(C(N)=O)C(=O)C32)C1c1cccs1 (stereo not drawn): condition not met
- C=CCN1C(=O)[C@]2(O[C@H](CCn3cc(CCO)nn3)[C@@H]([Si](C)(C)c3ccc(OC)cc3)[C@@H]2C)c2cc(NC(=O)c3ccc(OC)cc3)ccc21: condition met
- C=CCN(C(=O)C1N(c2ccc(CCO)cc2)C(=O)C2C(C(=O)O)C3C=CC21O3)C(C)(C)C (stereo not drawn): condition not met
- CCN1C(C)=C(C(=O)OC)[C@@H](c2ccccc2)N2C(=O)[C@@]3(C(=O)OC)O[C@@]12[C@@H]1C(=O)CCC[C@@H]13: condition not met
- CO[C@@H]1COC(=O)[C@@H]2CCCN2C(=O)CC=C[C@@H](C)[C@H](OC)COC(=O)[C@@H]2CCCN2C(=O)CC=C[C@H]1C: condition not met
- C=CC[C@]1(C(=O)NCC(O)CO)N=C(c2ccc(OCCCO)cc2)O[C@H]1c1ccccc1 (stereo partly drawn): condition not met
- COc1cc2c(cc1OC)CN(C(=O)[C@H]1[C@@H]3C(=O)O[C@@H](c4ccccc4)[C@@H](c4ccccc4)N3[C@@H](c3ccc(O)cc3)[C@]13C(=O)Nc1ccc(C#CC4(O)CCCCCC4)cc13)CC2: condition met
- CCCC[C@H]1OB(O)C[C@H]2C1=C(COC)C[C@H]1C(=O)N(Cc3ccccc3)C(=O)[C@H]12: condition not met
- CCOC(=O)C[C@H]1[C@H](OC(=O)c2cc3ccccc3oc2=O)[C@@H](NC(=O)c2ccc3ccccc3c2)c2cc(OCCCO)ccc2N1C(=O)c1ccc2ccccc2n1: condition met
- CCOC(=O)[C@H]1C/C=C/C[C@H](C(=O)OCC)C(=O)O[C@H]2[C@@H](OC)O[C@H](CO)[C@@H](OC(=O)Nc3ccc(Br)cc3)[C@@H]2OC1=O: condition met
- N#Cc1ccc(NN2C(C(O)CCc3ccccc3)C=CC3C(=O)N(c4ccccc4)C(=O)C32)cc1 (stereo not drawn): condition met
- CCCNC(=O)[C@@H]1c2ccccc2C(=O)N(C2CCCCC2)[C@H]1c1ccc(CO)cc1: condition met
- COCCOC(=O)N1C(=O)[C@@]2(c3cc(C#CCNC(N)=O)ccc31)[C@H](c1ccc(OCCO)cc1)N1[C@H](c3ccccc3)[C@H](c3ccccc3)OC(=O)[C@H]1[C@@H]2C(=O)N1CCCCCCC1: condition not met
- Cc1ccc(S[C@]2(C(=O)O)CC(=O)N(Cc3ccccc3)[C@@H]2c2ccc(CO)cc2)cc1: condition not met
- CC(=O)NCCCC[C@@H]1NC(=O)[C@@H]2C[C@H](C(=O)NCCCCCNC(=O)CS)[C@H](c3ccc(O)cc3)N2C1=O: condition not met
- COCCOC(=O)N1C(=O)[C@@]2(c3cc(C#CCC(C(=O)OC)C(=O)OC)ccc31)[C@H](C(=O)N1CCN(c3ncccn3)CC1)[C@H]1C(=O)O[C@H](c3ccccc3)[C@H](c3ccccc3)N1[C@@H]2c1ccc(O)cc1: condition met
- CC(=O)NCCCC[C@@H]1NC(=O)[C@H]2C[C@@H](C(=O)NCCCCCCN(C)C)[C@@H](c3ccc(O)cc3)N2C1=O: condition met
- CN1C(=O)C2C=CC(C(O)c3ccc(N(C)C)cc3)N(Nc3ccc([N+](=O)[O-])cc3[N+](=O)[O-])C2C1=O (stereo not drawn): condition met
- O=C/C=C/c1ccccc1Cl: condition not met
- C=CCNC(=O)[C@H]1[C@@H]2C(=O)O[C@@H](c3ccccc3)[C@@H](c3ccccc3)N2[C@@H](c2ccccc2OCCO)[C@]12C(=O)N(C(=O)OCCOC)c1ccc(C#CCC(C(=O)OC)C(=O)OC)cc12: condition met
